Hello, the source for this data is patent US20240238445A1, in case you need it.

Each item that follows carries a reported Inhibition rate (%).
Target: FAM19A5 protein (Homo sapiens, UniProt Q7Z5A7)
Experiment: competitive inhibition ELISA, 20 nM peptide, rFAM19A5 5 ng/mL; competitor: coated LRRC4B(36-576)-hFc
Quick reminder: number only, in %, skip the unit.

INSERT INTO assay_data (binder, experimental_endpoint, numeric_value) VALUES
  ('KNTYFTTVTVETNKETQ [FB-m10dN]', 'Inhibition rate (%)', 7.7),
  ('KNYTYFTTVTNKETQ [FB-m8dC]', 'Inhibition rate (%)', 5.1),
  ('KNYTYFTTNKETQ [FB-m6dC]', 'Inhibition rate (%)', 14.9),
  ('KNYTYFTTVTVETNKETQ [FB-m11dC]', 'Inhibition rate (%)', 65),
  ('GYTYFTTVTVETLETQPGEE [FB-20]', 'Inhibition rate (%)', 84.3);

response.value for KNYTYFTTVTVENKETQ [FB-m10dC] (field: Inhibition rate (%)) = 62

response.value for KNYFTTVTVETNKETQ [FB-m9dN] (field: Inhibition rate (%)) = 2.5

response.value for KNFTTVTVETNKETQ [FB-m8dN] (field: Inhibition rate (%)) = 3.3

response.value for KNYTYFTTVNKETQ [FB-m7dC] (field: Inhibition rate (%)) = 4.4

response.value for KNTTVTVETNKETQ [FB-m7dN] (field: Inhibition rate (%)) = 2

response.value for KNYTYFTTVTVNKETQ [FB-m9dC] (field: Inhibition rate (%)) = 16.8
